Attribution: PubChem BioAssay AID743317

Would you mind telling me the reported AC40 of each entry?
# tested-system: Endoplasmic reticulum aminopeptidase 1 (Homo sapiens) (UniProt Q9NZ08)
# Sequence (Q9NZ08 whole entry, looked up): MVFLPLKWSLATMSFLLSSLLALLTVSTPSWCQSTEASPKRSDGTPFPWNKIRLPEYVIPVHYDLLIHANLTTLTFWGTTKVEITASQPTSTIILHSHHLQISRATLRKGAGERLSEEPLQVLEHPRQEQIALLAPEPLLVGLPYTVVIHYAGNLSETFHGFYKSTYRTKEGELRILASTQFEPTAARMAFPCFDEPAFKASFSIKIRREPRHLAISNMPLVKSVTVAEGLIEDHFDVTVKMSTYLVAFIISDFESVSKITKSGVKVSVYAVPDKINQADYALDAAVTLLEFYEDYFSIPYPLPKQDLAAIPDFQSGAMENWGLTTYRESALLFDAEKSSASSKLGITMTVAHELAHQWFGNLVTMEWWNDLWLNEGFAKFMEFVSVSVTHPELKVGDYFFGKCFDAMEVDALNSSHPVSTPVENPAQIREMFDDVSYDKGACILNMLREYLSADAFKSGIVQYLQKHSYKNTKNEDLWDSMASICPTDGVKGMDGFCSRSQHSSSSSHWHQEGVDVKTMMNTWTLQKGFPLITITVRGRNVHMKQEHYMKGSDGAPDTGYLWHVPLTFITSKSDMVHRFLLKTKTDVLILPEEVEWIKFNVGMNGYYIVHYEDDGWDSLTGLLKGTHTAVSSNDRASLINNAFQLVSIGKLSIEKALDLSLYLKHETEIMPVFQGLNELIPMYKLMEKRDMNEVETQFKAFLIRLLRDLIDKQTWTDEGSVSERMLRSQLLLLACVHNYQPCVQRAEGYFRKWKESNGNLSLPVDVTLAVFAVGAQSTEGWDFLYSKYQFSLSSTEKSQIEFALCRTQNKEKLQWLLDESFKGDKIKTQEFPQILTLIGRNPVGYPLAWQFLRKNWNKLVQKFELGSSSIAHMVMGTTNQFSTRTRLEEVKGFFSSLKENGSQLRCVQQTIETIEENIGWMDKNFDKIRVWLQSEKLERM
# procedure-text: ERAP1 aminopeptidase activity change, dose response, biochemical, fluorescence, cherry-pick (AID 743317)
# reported-conditions: ERAP1 enzyme, Leu-AMC fluorescence, 60 min
Records with an inconclusive call do not appear.

[Q] Field request: AC40 | item: O=S(=O)(O)c1ccc(N2N=C(c3ccccc3)CC2c2ccccc2)cc1 (stereo not drawn)
[A] 4310 nM

[Q] Field request: AC40 | item: "C[C@@H]1CCCCO[C@@H](CN(C)CC2CC2)[C@@H](C)CN([C@H](C)CO)C(=O)c2cc(NS(=O)(=O)c3cccs3)ccc2O1"
[A] < 80 nM

[Q] Field request: AC40 | item: "C[C@@H]1CN([C@H](C)CO)C(=O)c2cc(NC(=O)Nc3ccc(F)cc3)ccc2O[C@H]1CN(C)Cc1ccc(C(=O)O)cc1"
[A] 484 nM

[Q] Field request: AC40 | item: "C[C@H](CO)N1C[C@H](C)[C@H](CN(C)CC2CCCCC2)Oc2c(NC(=O)Nc3ccc(C(F)(F)F)cc3)cccc2C1=O"
[A] 565 nM

[Q] Field request: AC40 | item: "Cc1ccc(-c2cc(C(=O)N3CCCC3)c3ccccc3n2)s1"
[A] 6450 nM

[Q] Field request: AC40 | item: "Cc1ccc(S(=O)(=O)c2cc3ccc(O)cc3oc2=O)cc1C"
[A] 2990 nM

[Q] Field request: AC40 | item: COc1ccc(C2=NN(c3ccc(C(=O)O)cc3)C(c3ccc(OC)c(OC)c3)C2)cc1 (stereo not drawn)
[A] 442 nM

[Q] Field request: AC40 | item: "COc1ccc(CN(C)C[C@@H]2OCCCC[C@H](C)Oc3ccc(NS(=O)(=O)c4cccs4)cc3C(=O)N([C@H](C)CO)C[C@@H]2C)cc1"
[A] 7890 nM

---

# tested-system: Endoplasmic reticulum aminopeptidase 1 (Homo sapiens) (UniProt Q9NZ08)
# procedure-text: ERAP1 aminopeptidase activity change, dose response, biochemical, fluorescence, cherry-pick (AID 743317)
# reported-conditions: ERAP1 enzyme, Leu-AMC fluorescence, 60 min
Inconclusive results are not listed.
reported-property: AC40

[Q] Field request: AC40 | item: "CNC[C@H]1OCCCC[C@@H](C)Oc2ccc(NS(=O)(=O)c3ccc(C)cc3)cc2C(=O)N([C@@H](C)CO)C[C@H]1C"
[A] 3.42 µM

[Q] Field request: AC40 | item: "Cc1noc(C)c1NC(=O)N(C)C[C@@H]1Oc2c(NC(=O)Nc3ccccc3)cccc2C(=O)N([C@H](C)CO)C[C@@H]1C"
[A] 6.45 µM

[Q] Field request: AC40 | item: "C[C@@H]1CCCCO[C@@H](CN(C)Cc2ccc(C(=O)O)cc2)[C@@H](C)CN([C@H](C)CO)C(=O)c2cc(NC(=O)Nc3cccc4ccccc34)ccc2O1"
[A] 0.408 µM

[Q] Field request: AC40 | item: "COc1ccc(NC(=O)Nc2ccc3c(c2)C(=O)N([C@H](C)CO)C[C@@H](C)[C@H](CN(C)Cc2ccc(C(=O)O)cc2)OCCCC[C@@H](C)O3)cc1"
[A] 3.3 µM

[Q] Field request: AC40 | item: "Cc1ccc(S(=O)(=O)Nc2ccc3c(c2)C(=O)N([C@@H](C)CO)C[C@H](C)[C@H](CN(C)C)OCCCC[C@@H](C)O3)cc1"
[A] 0.48 µM

[Q] Field request: AC40 | item: "Cc1noc(C)c1S(=O)(=O)Nc1ccc2c(c1)C(=O)N([C@H](C)CO)C[C@H](C)[C@H](CN(C)Cc1ccc3c(c1)OCO3)OCCCC[C@@H](C)O2"
[A] 2.35 µM
